Documented MIC across a set of substances
- Test system: E. coli DH5α
- TEST_PROTOCOL: Antibacterial activity: MIC and growth curve against E. coli DH5α in 96-well plate
- Format: cell-based
- CONDITION_DESCRIPTION: minimal inhibitory concentration against E. coli DH5α; 96-well plate, 5×10^5 CFU/mL, 37° C., judged after 8 h
// return the numeric value with its unit appended

As a guide, the following entries are already answered.
- PRT997 (EVDECLSDPCPVGASCLDLPGAFFCLCPSGFTGQLCE; listed as Homo sapiens): 12.5 µg/mL
- PRT1229 (DINECETGLAKCKYKAYCRNKVGGYICSCLVKYTLFNFLAGIIDYDHPDCY; listed as Homo sapiens): 25 µg/mL
- PRT758 (RVDHCAQQDHGCEQLCLNTEDSFVCQCSEGFLINEDLKTCS; listed as Homo sapiens): 12.5 µg/mL
- PRT80 (TNVCDLNPCEHQSVCTRKPSAPHGYTCECPPNYLGPYCE; listed as Homo sapiens): 12.5 µg/mL

Here is another substance to look at.
The value of MIC measured for the substance PRT543 (CGCHEVGATGPTCEPFGGQCPCHAHVIGRDCSRCATGYWGFPNCRP; listed as Homo sapiens) turned out to be 12.5 µg/mL

###

- Tested on: Pseudomonas aeruginosa
- TEST_PROTOCOL: MIC against Gram-negative bacteria: Pseudomonas aeruginosa
- Format: cell-based
- CONDITION_DESCRIPTION: P. aeruginosa; 10 h cultivation at 37° C.
MEASURED_QUANTITY: MIC (µg/mL)
Give the value, in units of µg/mL, as a plain number.

Worked cases, MIC given:
• PRT915 (ASSPCLGGNPCYNQGTCEPTSESPFYRCLCPAKFNGLLCH; listed as Homo sapiens) = 50
• PRT948 (DINECLSNPCSSEGSLDCIQLTNDYLCVCRSAFTGRHCE; listed as Homo sapiens) = 50
• PRT1033 (LYVPCAPSPCVNGGTCRQTGDFTFECNCLPETVRRGTE; listed as Homo sapiens) = 50
• PRT984 (SNASCAAAPCLHGGSCRPAPLAPFFRCACAQGWTGPRCE; listed as Homo sapiens) = 25
• PRT956 (NIDDCAFASCTPGSTCIDRVASFSCMCPEGKAGLLCH; listed as Homo sapiens) = 12.5

Record PRT1019 (NLDDCIAATCAPGSTCIDRVGSFSCLCPPGRTGLLCH; listed as Homo sapiens) , field MIC: 12.5

Entry PRT1043 (HGPNCSQECRCHNGGLCDRFTGQCRCAPGYTGDRCR; listed as Homo sapiens) — recorded MIC = 25

MIC measured on PRT968 (LEDPCHSGPCAGRGVCQSSVVAGTARFSCRCPRGFRGPDCS; listed as Homo sapiens) = 25

Recorded MIC (substance PRT936 (VLAPCSPNPCENAAVCKESPNFESYTCLCAPGWQGQRCT; listed as Homo sapiens) ): 25

Lookup result for PRT982 (VLSPCESQPCQHGGQCRPSPGPGGGLTFTCHCAQPFWGPRCE; listed as Homo sapiens) ; measured MIC: 12.5

###

- System: Moraxella catarrhalis
- TEST_PROTOCOL: MIC against Gram-negative bacteria: Moraxella catarrhalis
- Type: cell-based
- CONDITION_DESCRIPTION: M. catarrhalis; 10 h cultivation at 37° C.; 5×10^5 CFU/mL
MEASURED_QUANTITY: MIC (μg/mL) M. catarrhalis
# do not omit the unit; it follows the number

Take a look at these entries with their results.
- PRT796 (SGDFCIPLCTEECVHGRCVSPDTCHCEPGWGGPDCS; listed as Homo sapiens): 50 µg/mL
- PRT866 (CQCHGHAARCAARARPPRCHCRHHTTGPGCESCRPSHRDWPWRPATPRHPHPCLP; listed as Homo sapiens): 12.5 µg/mL
- PRT180 (DLDDCAGRACANGGTCVEGGGAHRCSCALGFGGRDCR; listed as Homo sapiens): 25 µg/mL
- PRT854 (TCSMANCQYGCDVVKGQIRCQCPSPGLQLAPDGRTCV; listed as Homo sapiens): 50 µg/mL
- PRT160 (KIDYCILDPCRNGATCISSLSGFTCQCPEGYFGSACE; listed as Homo sapiens): 25 µg/mL

Summary line: PRT174 (CASSPCANGGTCRDGVNDFSCTCPPGYTGRNC; listed as Homo sapiens) , Moraxella catarrhalis, reported MIC (μg/mL) M. catarrhalis = 50 µg/mL
